B1: Pituitary-specific positive transcription factor 1, residues 130 to 198; numbered along this chain, P28069 (parent)
chain: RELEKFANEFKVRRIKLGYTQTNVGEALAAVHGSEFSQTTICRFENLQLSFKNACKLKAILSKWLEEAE

Variants of: B1
Assay: abundance fitness (aPCA) (normalised: wild type 0, dead -1); higher = more abundant; growth selection in yeast, the domain comes from the species named
Settings: Homo sapiens
Quantity: abundance fitness

Answered cases to consult:
W64A :: -0.496
N46L :: -0.493
E26Q :: -0.527
K52W :: -0.408
L57N :: -0.72
E35R :: -0.208
C42V :: -0.336
F10S :: -0.544
A54L :: -0.033
E4G :: -0.848

Fill in the blank: the reported abundance fitness of R43A is ____. 0.12

Please do the same for K56T as well. -0.307

Please do the same for E45G as well. -0.961

Please do the same for F51K as well. -0.11

The measured values listed here are drawn from the Human Domainome abundance scans (Beltran et al. 2025).
